Test: Pharmacokinetic study following single oral gavage administration to cynomolgus monkeys
Type: in vivo
Conditions: cynomolgus monkey, plasma, 5 mg/kg; Monkey PK PO (5 mpk)
MEASURE NAME: Cmax (µg/mL)
Answer format: numeric, µg/mL implied, no suffix.

The compound listed as Cc1c(CC(C)C)sc(S(=O)(=O)NC(=O)OCC(C)(C)O)c1-c1ccc(Cn2ccnc2C(F)(F)F)cc1 shows Cmax equal to 3.56

The compound listed as COC(=O)NS(=O)(=O)c1sc(CC(C)C)c(C)c1-c1ccc(Cn2ccnc2C(C)(C)O)cc1 shows Cmax equal to 4.03

The compound listed as COC(=O)NS(=O)(=O)c1sc(CC(C)C)c(C)c1-c1ccc(Cn2ccnc2C(F)(F)F)cc1 shows Cmax equal to 5.31

The compound listed as CCCCOC(=O)NS(=O)(=O)c1sc(CC(C)C)cc1-c1ccc(Cn2ccnc2)cc1 [Control Compound I, reference compound] shows Cmax equal to 1.32

The compound listed as COC(=O)NS(=O)(=O)c1sc(CC(C)C)c(C)c1-c1ccc(Cn2ccnc2Cl)c(F)c1 shows Cmax equal to 5.04

----------
Target: CYP2C9 (Homo sapiens, UniProt P11712)
Construct: Mixed human liver microsomes; from tissue; host or cells: mixed (pooled) human liver microsomes
Sequence (P11712 whole entry): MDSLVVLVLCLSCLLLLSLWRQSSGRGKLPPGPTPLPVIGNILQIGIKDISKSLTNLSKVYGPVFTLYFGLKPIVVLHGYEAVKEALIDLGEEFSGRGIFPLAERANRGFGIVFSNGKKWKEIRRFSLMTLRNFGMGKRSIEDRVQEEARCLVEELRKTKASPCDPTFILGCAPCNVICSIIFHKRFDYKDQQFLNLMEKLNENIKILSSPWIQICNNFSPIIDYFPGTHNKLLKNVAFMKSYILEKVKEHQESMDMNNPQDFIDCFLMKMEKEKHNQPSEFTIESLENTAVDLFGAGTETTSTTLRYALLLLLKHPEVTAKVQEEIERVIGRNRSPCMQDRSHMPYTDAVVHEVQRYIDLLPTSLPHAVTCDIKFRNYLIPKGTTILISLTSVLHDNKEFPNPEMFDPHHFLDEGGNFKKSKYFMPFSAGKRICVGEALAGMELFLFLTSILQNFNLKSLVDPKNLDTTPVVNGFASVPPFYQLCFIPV
Experiment: CYP inhibition assay in mixed human liver microsomes
Assay type: in vitro ADME
Conditions: read-out: Inhibition Rate % CYP2C9
Field: inhibition at 10 µM. Provide a value for each of the molecules that follow.
Answer format: numeric, % implied, no suffix.

The molecule listed as COC(=O)NS(=O)(=O)c1sc(CC(C)C)c(C)c1-c1ccc(Cn2ccnc2C(F)(F)F)cc1 shows inhibition at 10 µM equal to 18.6

The molecule listed as COC(=O)NS(=O)(=O)c1sc(CC(C)C)c(C)c1-c1ccc(Cn2ccnc2Cl)c(F)c1 shows inhibition at 10 µM equal to 24.8

The molecule listed as Cc1c(CC(C)C)sc(S(=O)(=O)Nc2ncccn2)c1-c1ccc(Cn2ccnc2Cl)cc1 shows inhibition at 10 µM equal to 20.5

----------
Field: inhibition at 10 µM. Provide a value for each of the molecules that follow.
Molecular target: CYP1A2 (Homo sapiens)
Construct: Mixed human liver microsomes; from tissue; host or cells: mixed (pooled) human liver microsomes
Sequence (P05177 whole entry): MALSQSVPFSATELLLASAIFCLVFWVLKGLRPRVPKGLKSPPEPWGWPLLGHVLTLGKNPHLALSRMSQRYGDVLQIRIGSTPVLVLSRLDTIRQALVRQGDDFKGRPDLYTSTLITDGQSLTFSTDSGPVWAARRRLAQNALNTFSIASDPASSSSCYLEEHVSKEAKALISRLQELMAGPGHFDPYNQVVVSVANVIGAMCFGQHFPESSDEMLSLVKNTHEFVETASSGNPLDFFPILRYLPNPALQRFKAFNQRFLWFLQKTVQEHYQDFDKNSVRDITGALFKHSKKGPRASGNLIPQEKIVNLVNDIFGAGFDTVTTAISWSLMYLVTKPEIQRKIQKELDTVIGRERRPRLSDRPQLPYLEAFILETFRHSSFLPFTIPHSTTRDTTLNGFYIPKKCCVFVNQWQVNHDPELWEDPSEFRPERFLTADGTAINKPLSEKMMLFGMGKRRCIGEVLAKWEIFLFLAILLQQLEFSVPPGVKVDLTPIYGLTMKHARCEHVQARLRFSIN
Assay: CYP inhibition assay in mixed human liver microsomes
Format: in vitro ADME
Settings: read-out: Inhibition Rate % CYP1A2
Answer format: numeric, % implied, no suffix.

The molecule listed as COC(=O)NS(=O)(=O)c1sc(CC(C)C)c(C)c1-c1ccc(Cn2ccnc2C(F)(F)F)cc1 shows inhibition at 10 µM equal to 0

The molecule listed as COC(=O)NS(=O)(=O)c1sc(CC(C)C)c(C)c1-c1ccc(Cn2ccnc2Cl)c(F)c1 shows inhibition at 10 µM equal to 5.6

The molecule listed as Cc1c(CC(C)C)sc(S(=O)(=O)NC(=O)OCCO)c1-c1ccc(Cn2ccnc2C(F)(F)F)cc1 shows inhibition at 10 µM equal to 3.5

The molecule listed as Cc1c(CC(C)C)sc(S(=O)(=O)NC(=O)OCC(C)(C)O)c1-c1ccc(Cn2ccnc2C(F)(F)F)cc1 shows inhibition at 10 µM equal to 0

The molecule listed as Cc1c(CC(C)C)sc(S(=O)(=O)Nc2ncccn2)c1-c1ccc(Cn2ccnc2Cl)cc1 shows inhibition at 10 µM equal to 8.3

The molecule listed as CCCCOC(=O)NS(=O)(=O)c1sc(CC(C)C)cc1-c1ccc(Cn2ccnc2)cc1 [Control Compound I, reference compound] shows inhibition at 10 µM equal to 95.4

The molecule listed as COC(=O)NS(=O)(=O)c1sc(CC(C)C)c(C)c1-c1ccc(Cn2ccnc2C(C)(C)O)cc1 shows inhibition at 10 µM equal to 0
